# System: PA-1 human ovary teratocarcinoma cells
# Assay overview: Cytotoxicity, resazurin metabolism assay, PA-1
# Type: cell-based
# Test context: mean ± SD
Measured attribute: IC50 (µM)
Report only the number, with the unit µM understood.

Completed entries (count: 3):
C=C(C)[C@@H]1CC[C@]2(C(=O)O)CC[C@]3(C)[C@H](CC[C@@H]4[C@@]5(C)CC[C@H](O[C@H]6OC[C@@H](O)[C@@H](O)[C@@H]6O)C(C)(C)[C@@H]5CC[C@]43C)[C@@H]12 ... 20
C=C(C)[C@@H]1CC[C@]2(C)CC[C@]3(C)[C@H](CC[C@@H]4[C@@]5(C)CC[C@H](O[C@@H]6O[C@H](CO)[C@@H](O)[C@H](O)[C@H]6O)C(C)(C)[C@@H]5CC[C@]43C)[C@@H]12 [Compound 9, 3-O-6-D-Glucopyranoside of lupeol] ... 13
C=C(C)[C@@H]1CC[C@]2(C)CC[C@]3(C)[C@H](CC[C@@H]4[C@@]5(C)CC[C@H](O[C@H]6OC[C@@H](O)[C@@H](O)[C@@H]6O)C(C)(C)[C@@H]5CC[C@]43C)[C@@H]12 [Compound 11, 3-O-α-D-Arabinopyranoside of Lupeol] ... 9.8

API: the following record is the query input.
C=C(C)[C@@H]1CC[C@]2(C(=O)O)CC[C@]3(C)[C@H](CC[C@@H]4[C@@]5(C)CC[C@H](O[C@@H]6OC[C@@H](O)[C@H](O)[C@H]6O)C(C)(C)[C@@H]5CC[C@]43C)[C@@H]12 [Compound 30, 3-O-β-D-Xylopyranoside of betulinic acid] has a reported IC50 of 7.9

---

# Tested on: MCF-7 human breast adenocarcinoma cells
# Assay overview: Cytotoxicity, resazurin metabolism assay, MCF-7
# Type: cell-based
# Test context: mean ± SD
Measured attribute: pIC50
Scale for pIC50: -log10 of concentration given in mol/L; no unit attached.

Completed entries (count: 8):
CC1(C)CC[C@]23CC[C@]4(C)[C@H](CC[C@@H]5[C@@]6(C)CC[C@H](O[C@@H]7O[C@H](CO)[C@H](O)[C@H](O)[C@H]7O)C(C)(C)[C@@H]6CC[C@]54C)[C@H]2[C@H]1OC3 [Compound 36, 3-O-β-D-Galactopyranoside of Allobetulin] ... 4.22
C=C(C)C1CCC2(C(=O)O)CCC3(C)C(CCC4C5(C)CCC(OC6OC(CO)C(O)C(O)C6O)C(C)(C)C5CCC43C)C12 (stereo not drawn) [Compound 29] ... 4.70
C=C(C)[C@@H]1CC[C@]2(C(=O)O)CC[C@]3(C)[C@H](CC[C@@H]4[C@@]5(C)CC[C@H](O[C@H]6OC[C@@H](O)[C@@H](O)[C@@H]6O)C(C)(C)[C@@H]5CC[C@]43C)[C@@H]12 [Compound 23] ... 4.35
C=C(C)[C@@H]1CC[C@]2(C(=O)O)CC[C@]3(C)[C@H](CC[C@@H]4[C@@]5(C)CC[C@H](O[C@@H]6OC[C@@H](O)[C@H](O)[C@H]6O)C(C)(C)[C@@H]5CC[C@]43C)[C@@H]12 [Compound 30, 3-O-β-D-Xylopyranoside of betulinic acid] ... 4.64
C=C(C)[C@@H]1CC[C@]2(C(=O)OC)CC[C@]3(C)[C@H](CC[C@@H]4[C@@]5(C)CC[C@H](O[C@@H]6O[C@H](CO)[C@@H](O)[C@H](O)[C@H]6O)C(C)(C)[C@@H]5CC[C@]43C)[C@@H]12 [Compound 18] ... 3.96
C=C(C)[C@@H]1CC[C@]2(C)CC[C@]3(C)[C@H](CC[C@@H]4[C@@]5(C)CC[C@H](O[C@H]6OC[C@@H](O)[C@@H](O)[C@@H]6O)C(C)(C)[C@@H]5CC[C@]43C)[C@@H]12 [Compound 11, 3-O-α-D-Arabinopyranoside of Lupeol] ... 4.64
C=C(C)C1CCC2(CO)CCC3(C)C(CCC4C5(C)CCC(OC6OCC(O)C(O)C6O)C(C)(C)C5CCC43C)C12 [Compound 14, 3-O-α-D-Arabinopyranoside of Betulin] ... 4.21
C=C(C)[C@@H]1CC[C@]2(C(=O)O)CC[C@]3(C)[C@H](CC[C@@H]4[C@@]5(C)CC[C@H](O[C@@H]6O[C@@H](C)[C@H](O)[C@@H](O)[C@H]6O)C(C)(C)[C@@H]5CC[C@]43C)[C@@H]12 [Compound 22] ... 4.80

API: the following record is the query input.
C=C(C)[C@@H]1CC[C@]2(C(=O)OC)CC[C@]3(C)[C@H](CC[C@@H]4[C@@]5(C)CC[C@H](O[C@H]6OC[C@@H](O)[C@@H](O)[C@@H]6O)C(C)(C)[C@@H]5CC[C@]43C)[C@@H]12 [Compound 20] has a reported pIC50 of 4.68

---

# System: U-251 human glioma cells
# Assay overview: Cytotoxicity, resazurin metabolism assay, U-251
# Format: cell-based
# Test context: mean ± SD
Overview of recorded IC50 for various compounds
Report only the number, with the unit µM understood.

C=C(C)[C@@H]1CC[C@]2(C(=O)O)CC[C@]3(C)[C@H](CC[C@@H]4[C@@]5(C)CC[C@H](O[C@@H]6OC[C@@H](O)[C@H](O)[C@H]6O)C(C)(C)[C@@H]5CC[C@]43C)[C@@H]12 [Compound 30, 3-O-β-D-Xylopyranoside of betulinic acid] ... 26
C=C(C)[C@@H]1CC[C@]2(C(=O)OC)CC[C@]3(C)[C@H](CC[C@@H]4[C@@]5(C)CC[C@H](O[C@@H]6O[C@H](CO)[C@@H](O)[C@H](O)[C@H]6O)C(C)(C)[C@@H]5CC[C@]43C)[C@@H]12 [Compound 18] ... 84
C=C(C)C1CCC2(C(=O)O)CCC3(C)C(CCC4C5(C)CCC(OC6OC(CO)C(O)C(O)C6O)C(C)(C)C5CCC43C)C12 (stereo not shown) [Compound 29] ... 6

API: the following record is the query input.
C=C(C)[C@@H]1CC[C@]2(C(=O)OC)CC[C@]3(C)[C@H](CC[C@@H]4[C@@]5(C)CC[C@H](O[C@H]6OC[C@@H](O)[C@@H](O)[C@@H]6O)C(C)(C)[C@@H]5CC[C@]43C)[C@@H]12 [Compound 20] has a reported IC50 of 15

---

# Tested on: U-251 human glioma cells
# Assay overview: Cytotoxicity, resazurin metabolism assay, U-251
# Format: cell-based
# Test context: mean ± SD
Overview of recorded pIC50 for various compounds
Scale for pIC50: -log10 of concentration given in mol/L; no unit attached.

Completed entries (count: 2):
C=C(C)C1CCC2(CO)CCC3(C)C(CCC4C5(C)CCC(OC6OC(C)C(O)C(O)C6O)C(C)(C)C5CCC43C)C12 [Compound 13, 3-O-α-L-Rhamnopyranoside of Betulin] ... 3.77
CC1(C)CCC23CCC4(C)C(CCC5C6(C)CCC(OC7OC(CO)C(O)C(O)C7O)C(C)(C)C6CCC54C)C2C1OC3 [Compound 33, 3-O-β-D-Glucopyranoside of Allobetulin] ... 4.34

API: the following record is the query input.
C=C(C)[C@@H]1CC[C@]2(C(=O)O)CC[C@]3(C)[C@H](CC[C@@H]4[C@@]5(C)CC[C@H](O[C@@H]6O[C@@H](C)[C@H](O)[C@@H](O)[C@H]6O)C(C)(C)[C@@H]5CC[C@]43C)[C@@H]12 has a reported pIC50 of 4.70

---

Overview of recorded pIC50 for various molecules
# Test system: MCF-7 human breast adenocarcinoma cells
# Assay overview: Cytotoxicity, resazurin metabolism assay, MCF-7
# Assay type: cell-based
# Test context: mean ± SD
Scale for pIC50: -log10 of concentration given in mol/L; no unit attached.

Completed entries (count: 3):
C=C(C)C1CCC2(CO)CCC3(C)C(CCC4C5(C)CCC(OC6OC(CO)C(O)C(O)C6O)C(C)(C)C5CCC43C)C12 [Compound 26, 3-O-β-D-Mannopyranoside of Betulin] ... 5.04
CC1(C)CCC23CCC4(C)C(CCC5C6(C)CCC(OC7OC(CO)C(O)C(O)C7O)C(C)(C)C6CCC54C)C2C1OC3 [Compound 33, 3-O-β-D-Glucopyranoside of Allobetulin] ... 4.29
C=C(C)C1CCC2(CO)CCC3(C)C(CCC4C5(C)CCC(OC6OC(C)C(O)C(O)C6O)C(C)(C)C5CCC43C)C12 [Compound 13, 3-O-α-L-Rhamnopyranoside of Betulin] ... 4.72

API: the following record is the query input.
C=C(C)[C@@H]1CC[C@]2(C)CC[C@]3(C)[C@H](CC[C@@H]4[C@@]5(C)CC[C@H](O[C@@H]6O[C@H](CO)[C@@H](O)[C@H](O)[C@H]6O)C(C)(C)[C@@H]5CC[C@]43C)[C@@H]12 [Compound 9, 3-O-6-D-Glucopyranoside of lupeol] has a reported pIC50 of 4.79

All values here come from patent US20100331269A1.
